Biological target: T1, human VEGF C (human, UniProt P49767 103-227, limits assumed)
T1 construct: also called hVEGFC; hVEGF C
T1 sequence (looked up): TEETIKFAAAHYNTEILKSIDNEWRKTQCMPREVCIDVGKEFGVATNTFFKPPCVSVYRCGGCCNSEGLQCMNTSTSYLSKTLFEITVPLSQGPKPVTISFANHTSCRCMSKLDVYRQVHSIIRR
Experiment: ELISA blocking: VEGFC-biotin captured on streptavidin plate; blocked receptor VEGFR3-Fc (0.2 ug/mL), detected with anti-human Fc-HRP, OD450
Protocol: SA (streptavidin) was diluted to 1 μg/mL, and 100 μL/well of SA was plated in a microplate at 4° C. overnight. The plate was washed 3 times with PBST and blocked with 3% BSA for 1.5 h. The plate was washed 3 times with PBST, 50 ng/ml of VEGFC-biotin (biotin-labeled human VEGF C) was added, and the plate was incubated for 1.5 h. […] The plate was washed 6 times with PBST, the color development was performed with TMB (SOLARBIO) for 5 min, and OD450 nm was read after stopping.
I'd be grateful if you could share measured IC50 for these entries.
Expressed in µg/mL, but write only the number.

# input Entry am63G12-14B11 affinity-matured humanized anti-VEGF C VHH antibody (VHH, also called am63G12.1-14B11) VHH: EVQLVESGGGLVQPGGSLRLSCAASGSSFSPYAMGWYRQAPGKQRELVSATSEGGFTLYADSVKGRFTISRDNSKNTVYLQMNSLRAEDTAVYYCYMHWRGSDPENYWGQGTQVTVSS : reported IC50 = ?
# output 0.0191

# input Likewise for LA63G12 anti-VEGF C VHH antibody (VHH, The prokaryotic product was purified on Ni Sepharose) VHH: QLQLVESGGGLVQPGGSLRLSCAASGSSFSPYAMGWYRQAPGKQRELVAATTSGGSTLYADSVKGRFTISRDNAKNTVYLQMNSLKPEDTAVYYCYMHWRGSDPENYWGQGTQVTVSS ?
# output 0.342

# input Would you kindly repeat that for LA49G9 anti-VEGF C VHH antibody (VHH, The prokaryotic product was purified on Ni Sepharose) VHH: QLQLVESGGGLVQPGGSLRLSCAASGSMFSMYAMGWYRQAPGKQRELVAATTSGGSTLYADSVKGRFTISRDNAENTVYLQMNSLKPEDTAVYYCYTYWRGSDPENYWGRGTQVTVSS ?
# output 0.151

# input // query: LA63G12.1 humanized anti-VEGF C VHH-Fc antibody (Fc fusion, not shown: Fc part (and any hinge or linker) of the dimerized VHH-Fc antibody) EVQLVESGGGLVQPGGSLRLSCAASGSSFSPYAMGWYRQAPGKQRELVSATTSGGSTLYADSVKGRFTISRDNSKNTVYLQMNSLRAEDTAVYYCYMHWRGSDPENYWGQGTQVTVSS
# output 0.492
